TESTED_SYSTEM: c-Met (Homo sapiens, UniProt P08581)
Sequence (P08581 1078-1345 limits assumed): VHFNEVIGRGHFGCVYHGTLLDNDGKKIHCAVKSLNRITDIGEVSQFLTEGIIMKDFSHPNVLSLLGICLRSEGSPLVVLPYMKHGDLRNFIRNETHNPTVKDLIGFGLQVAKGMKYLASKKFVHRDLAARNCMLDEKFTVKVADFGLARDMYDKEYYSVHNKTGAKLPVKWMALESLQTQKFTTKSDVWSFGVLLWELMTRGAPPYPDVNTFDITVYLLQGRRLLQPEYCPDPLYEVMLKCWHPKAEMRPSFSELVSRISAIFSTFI
MEASURE_NAME: IC50

# IC50 measured on c-Met (Homo sapiens, UniProt P08581) for item C[C@@H](Nc1ncnc2[nH]c(-c3ccc(O)cc3)cc12)c1ccccc1 [PKI166] = > 1000 nM

---

TESTED_SYSTEM: c-Src (Homo sapiens, UniProt P12931)
Sequence (P12931 whole entry, species assumed): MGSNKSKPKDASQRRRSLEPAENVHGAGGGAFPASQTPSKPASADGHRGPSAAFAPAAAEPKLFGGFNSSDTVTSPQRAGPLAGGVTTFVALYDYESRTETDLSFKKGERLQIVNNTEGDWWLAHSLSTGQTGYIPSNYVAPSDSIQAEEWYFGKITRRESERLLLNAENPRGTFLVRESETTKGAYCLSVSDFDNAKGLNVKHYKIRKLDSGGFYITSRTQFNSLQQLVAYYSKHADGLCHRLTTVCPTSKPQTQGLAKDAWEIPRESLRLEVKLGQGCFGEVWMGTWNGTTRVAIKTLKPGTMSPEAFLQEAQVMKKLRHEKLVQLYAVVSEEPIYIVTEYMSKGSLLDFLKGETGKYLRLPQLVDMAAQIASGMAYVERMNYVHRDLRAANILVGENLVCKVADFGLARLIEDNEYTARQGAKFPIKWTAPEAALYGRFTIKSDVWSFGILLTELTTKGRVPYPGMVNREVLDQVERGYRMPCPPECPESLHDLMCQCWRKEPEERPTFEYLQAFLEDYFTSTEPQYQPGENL
RUN_DESCRIPTION: In vitro kinase filter binding assay, c-Src
Assay type: biochemical
PROTOCOL_CONDITIONS: text
MEASURE_NAME: IC50 (nM)
Number in nM, nothing else.

Input C[C@@H](Nc1ncnc2[nH]c(-c3ccc(O)cc3)cc12)c1ccccc1 [PKI166] . Output IC50: 130

---

TESTED_SYSTEM: EGF-R-ICD (Homo sapiens, UniProt P00533)
Construct: EGF-R intracellular kinase domain (EGF-R-ICD) was assayed in 20 mM Tris-HCl
Sequence (P00533 669-1210 limits assumed): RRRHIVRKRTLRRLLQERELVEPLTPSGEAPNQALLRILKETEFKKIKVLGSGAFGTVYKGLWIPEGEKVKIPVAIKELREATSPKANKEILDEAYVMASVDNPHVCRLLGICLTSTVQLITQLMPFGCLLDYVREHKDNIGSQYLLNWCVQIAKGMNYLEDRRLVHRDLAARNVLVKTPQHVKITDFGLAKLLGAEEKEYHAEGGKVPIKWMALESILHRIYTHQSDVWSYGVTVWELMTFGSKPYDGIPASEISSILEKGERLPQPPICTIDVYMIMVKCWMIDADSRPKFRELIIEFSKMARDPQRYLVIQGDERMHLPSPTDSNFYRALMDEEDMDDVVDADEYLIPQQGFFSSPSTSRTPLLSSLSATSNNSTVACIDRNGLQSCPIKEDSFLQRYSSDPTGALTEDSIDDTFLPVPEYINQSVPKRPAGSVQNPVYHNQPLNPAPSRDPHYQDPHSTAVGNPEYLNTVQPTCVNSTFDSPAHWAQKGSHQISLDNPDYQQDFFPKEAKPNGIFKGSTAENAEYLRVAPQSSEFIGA
RUN_DESCRIPTION: In vitro kinase filter binding assay, EGF-R intracellular kinase domain
PROTOCOL_CONDITIONS: intracellular domain (ICD) of the EGF-R kinase
MEASURE_NAME: pIC50
Remember, pIC50 is on a log scale: it is -log10 of the molar concentration.

Input `C[C@@H](Nc1ncnc2[nH]c(-c3ccc(O)cc3)cc12)c1ccccc1` . Output pIC50: 9.15

---

TESTED_SYSTEM: c-Kit (Homo sapiens)
Sequence (P10721 589-937 limits assumed): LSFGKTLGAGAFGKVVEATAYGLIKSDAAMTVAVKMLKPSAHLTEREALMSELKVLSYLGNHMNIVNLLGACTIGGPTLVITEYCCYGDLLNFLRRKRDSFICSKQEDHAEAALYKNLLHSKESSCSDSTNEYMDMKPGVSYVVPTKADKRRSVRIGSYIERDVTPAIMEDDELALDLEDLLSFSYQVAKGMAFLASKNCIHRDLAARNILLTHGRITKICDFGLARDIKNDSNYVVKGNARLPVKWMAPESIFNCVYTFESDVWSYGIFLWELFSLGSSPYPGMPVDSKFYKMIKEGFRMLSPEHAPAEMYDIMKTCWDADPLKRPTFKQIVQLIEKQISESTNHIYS
MEASURE_NAME: pIC50
Remember, pIC50 is on a log scale: it is -log10 of the molar concentration.

# pIC50 measured on c-Kit (Homo sapiens) for item `C[C@@H](Nc1ncnc2[nH]c(-c3ccc(O)cc3)cc12)c1ccccc1` = 5.66

---

TESTED_SYSTEM: Tek (Homo sapiens)
Sequence (Q02763 824-1096 limits assumed, species assumed): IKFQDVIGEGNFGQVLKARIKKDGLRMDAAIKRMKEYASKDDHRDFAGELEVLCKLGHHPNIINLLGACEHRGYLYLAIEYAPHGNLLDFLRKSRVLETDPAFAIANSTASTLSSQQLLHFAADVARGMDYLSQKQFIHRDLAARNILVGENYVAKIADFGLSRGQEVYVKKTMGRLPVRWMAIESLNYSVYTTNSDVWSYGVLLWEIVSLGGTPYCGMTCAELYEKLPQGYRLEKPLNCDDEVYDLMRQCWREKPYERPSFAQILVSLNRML
pIC50: −log10 of the molar value.
MEASURE_NAME: pIC50

# pIC50 measured on Tek (Homo sapiens) for item `C[C@@H](Nc1ncnc2[nH]c(-c3ccc(O)cc3)cc12)c1ccccc1` = < 6.00

---

TESTED_SYSTEM: c-Abl (Homo sapiens)
Sequence (P00519 242-493 limits assumed): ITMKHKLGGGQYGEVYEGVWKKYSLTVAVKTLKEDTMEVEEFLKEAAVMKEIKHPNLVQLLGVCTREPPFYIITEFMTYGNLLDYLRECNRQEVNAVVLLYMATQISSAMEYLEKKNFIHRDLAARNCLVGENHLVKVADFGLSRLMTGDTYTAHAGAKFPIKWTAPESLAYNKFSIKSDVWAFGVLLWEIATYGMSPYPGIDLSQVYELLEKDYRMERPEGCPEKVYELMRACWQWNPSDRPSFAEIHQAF
MEASURE_NAME: IC50 (µM)
Number in µM, nothing else.

Input C[C@@H](Nc1ncnc2[nH]c(-c3ccc(O)cc3)cc12)c1ccccc1 [PKI166] . Output IC50: 0.028

---

TESTED_SYSTEM: PKC-α (Homo sapiens, UniProt P17252)
MEASURE_NAME: IC50

Input `C[C@@H](Nc1ncnc2[nH]c(-c3ccc(O)cc3)cc12)c1ccccc1` . Output IC50: > 100 µM

Ref: patent US7344829B2
